Cited source for all entries: patent US12077503B2

- Tested on: barnyardgrass (Echinochloa crus-galli)
- procedureDetails: Test A postemergence
- Type: in vivo
- testContext: 500 g ai/ha, postemergence; 0 to 100 scale, 0 no effect, 100 complete control
measure: Plant response rating, Barnyardgrass
Returns: the value as a bare number; no unit string appended.

Cc1cc(C2CNC(=O)C2C(=O)Nc2cccc(F)c2F)ccc1F (stereo not shown) [Compound 400]
90

Plant response rating, Barnyardgrass in this record for O=C1NCC(c2ccccc2-c2ccccc2)C1C(=O)Nc1ccccc1F (racemic) [Compound 381] : 30

Lab note: O=C1NCC(c2ccc(-c3ccccc3)cc2)C1C(=O)Nc1ccccc1F (racemic) [Compound 365] gave Plant response rating, Barnyardgrass of 0

Lab note: measured Plant response rating, Barnyardgrass of COc1cccc(NC(=O)C2C(=O)NCC2c2ccc(F)c(F)c2)c1F (stereo not shown) [Compound 416] was 0

* * *

Quick reference for pest or weed control at 125 g/ha among some compounds
- Tested on: giant foxtail (Setaria faberii)
- procedureDetails: Test A postemergence
- Format: in vivo
- testContext: Setaria faberi, post-emergence, 240 h, 125 g ai/ha, Postemergence, visual rating about 10 d after treatment; read-out: Foxtail, Giant plant response rating (0 to 100 scale)
Just the number in %, nothing appended.

CN1C[C@H](c2ccc3c(c2)CCO3)[C@@H](C(=O)Nc2cccc(F)c2F)C1=O
90

pest or weed control at 125 g/ha for Cc1cccc([C@H]2CN(C)C(=O)[C@@H]2C(=O)Nc2ccc(F)nc2F)c1 is 80

The reported pest or weed control at 125 g/ha of the compound CN1CC[C@H](c2cccc(C(F)(F)F)c2)[C@@H](C(=O)Nc2ccccc2F)C1=O was 90

* * *

This listing pairs compounds with measured pest or weed control at 62.5 g/ha.
- Tested on: barnyardgrass (Echinochloa crus-galli)
- procedureDetails: Test G Post-Emergence Protocol
- Assay type: in vivo
- testContext: Echinochloa crus-galli, post-emergence, 312 h, 62.5 g ai/ha, evaluated after 13 days, read-out: Barnyardgrass damage rating (100=total damage to plant; 0=no damage to plant)
Express your answer in %, writing the number without its unit.

Consider the following illustrative entries.
CN1C[C@@H](c2ccc(C(F)(F)F)cc2)[C@H](C(=O)Nc2ccccc2)C1=O (racemic)
20
CN1C[C@@H](c2ccc(C(F)(F)F)cc2)[C@H](C(=O)Nc2cn[nH]c2)C1=O (racemic)
0
CN1C[C@@H](c2ccc(C(F)(F)F)cc2)[C@H](C(=O)Nc2ncc(C#N)s2)C1=O (racemic)
0

Quick note, pest or weed control at 62.5 g/ha for Cc1ccc(NC(=O)[C@H]2C(=O)N(C)C[C@@H]2c2ccc(C(F)(F)F)cc2)nc1 (racemic) landed at 20

* * *

- Test system: pigweed (Amaranthus retroflexus)
- procedureDetails: Test A postemergence
- Assay type: in vivo
- testContext: Amaranthus retroflexus, post-emergence, 240 h, 125 g ai/ha, postemergence, visual injury rating after approximately 10 d; read-out: Pigweed plant response rating (0 to 100 scale, 0 no effect, 100 complete control)
measure: pest or weed control at 125 g/ha (%)
Output spec: scalar in %, unitless text.

Below, each entry is followed by its recorded pest or weed control at 125 g/ha result.
COc1c(F)ccc([C@H]2CNC(=O)[C@@H]2C(=O)Nc2cccc(F)c2F)c1Cl
30
COc1cc([C@H]2CN(C)C(=O)[C@@H]2C(=O)Nc2ccccc2SC)cc(C(F)(F)F)c1
30
Cc1cc(C)cc([C@H]2CNC(=O)[C@@H]2C(=O)Nc2ccccc2C(F)(F)F)c1
0

// switching to the query compound
CN1CC[C@H](c2ccc3c(c2)OC(F)(F)O3)[C@@H](C(=O)Nc2ccc(F)c(F)c2F)C1=O has a reported pest or weed control at 125 g/ha of 0
